Biological target: RARα (Homo sapiens, UniProt P10276)
Sequence (P10276 183-462 limits assumed): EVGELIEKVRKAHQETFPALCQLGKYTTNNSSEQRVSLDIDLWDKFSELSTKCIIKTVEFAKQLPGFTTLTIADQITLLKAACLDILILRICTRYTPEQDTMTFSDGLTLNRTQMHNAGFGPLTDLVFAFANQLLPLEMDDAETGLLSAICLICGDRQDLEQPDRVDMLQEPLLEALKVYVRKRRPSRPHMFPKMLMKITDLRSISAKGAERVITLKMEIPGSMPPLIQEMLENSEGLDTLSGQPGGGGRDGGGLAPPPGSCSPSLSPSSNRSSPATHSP
Test: Transactivation assay (luciferase reporter, crossed curves vs reference agonist, Schild regression)
Conditions: HeLa stable transfectants, ERE-βGlob-Luc-SV-Neo reporter and RARα ER-DBD-puro; 18 hours incubation; apparent Kd; read-out: RARα Kdapp
readout: Kd (nM)

Examples from the recorded data:
In [3]: df
Out[3]:
                                   molecule  unitname  recordedvalue
0  CN(C)c1c(Cl)cc(C(O)C#Cc2ccc(C(=O)O)c(O)c2)cc1C(C)(C)C (stereo not drawn) [Compound of example 8]        nM            250
1  CN(C)c1c(Cl)cc(C(O)C#Cc2ccc(C(=O)O)cc2)cc1C(C)(C)C (stereo not drawn) [Compound of example 7]        nM            120
2  CC(C)c1cc(C(O)C#Cc2ccc(C(=O)O)c(O)c2)cc(C(C)C)c1N(C)C (stereo not drawn) [Compound of example 10]        nM           1000
3  CN(C)c1ccc(C(O)C#Cc2ccc(C(=O)O)cc2)cc1C(C)(C)C (stereo not drawn) [Compound of example 3]        nM            250

(I) CC(C)c1cc(C(O)C#Cc2ccc(C(=O)O)cc2)cc(C(C)C)c1N(C)C (stereo not drawn) [Compound of example 9]
(II) CCN(CC)c1ccc(C(O)C#Cc2ccc(C(=O)O)c(O)c2)cc1C(C)(C)C (stereo not drawn) [Compound of example 6]
Prompt line: Hi team, can someone confirm which has the larger Kd: I or II ? Thanks. Could you answer with the label of the item you picked?
Response line: II
(II: 250 nM, I: 60 nM)
